- target: CREBBP (Homo sapiens, UniProt Q92793)
- Sequence (Q92793 whole entry): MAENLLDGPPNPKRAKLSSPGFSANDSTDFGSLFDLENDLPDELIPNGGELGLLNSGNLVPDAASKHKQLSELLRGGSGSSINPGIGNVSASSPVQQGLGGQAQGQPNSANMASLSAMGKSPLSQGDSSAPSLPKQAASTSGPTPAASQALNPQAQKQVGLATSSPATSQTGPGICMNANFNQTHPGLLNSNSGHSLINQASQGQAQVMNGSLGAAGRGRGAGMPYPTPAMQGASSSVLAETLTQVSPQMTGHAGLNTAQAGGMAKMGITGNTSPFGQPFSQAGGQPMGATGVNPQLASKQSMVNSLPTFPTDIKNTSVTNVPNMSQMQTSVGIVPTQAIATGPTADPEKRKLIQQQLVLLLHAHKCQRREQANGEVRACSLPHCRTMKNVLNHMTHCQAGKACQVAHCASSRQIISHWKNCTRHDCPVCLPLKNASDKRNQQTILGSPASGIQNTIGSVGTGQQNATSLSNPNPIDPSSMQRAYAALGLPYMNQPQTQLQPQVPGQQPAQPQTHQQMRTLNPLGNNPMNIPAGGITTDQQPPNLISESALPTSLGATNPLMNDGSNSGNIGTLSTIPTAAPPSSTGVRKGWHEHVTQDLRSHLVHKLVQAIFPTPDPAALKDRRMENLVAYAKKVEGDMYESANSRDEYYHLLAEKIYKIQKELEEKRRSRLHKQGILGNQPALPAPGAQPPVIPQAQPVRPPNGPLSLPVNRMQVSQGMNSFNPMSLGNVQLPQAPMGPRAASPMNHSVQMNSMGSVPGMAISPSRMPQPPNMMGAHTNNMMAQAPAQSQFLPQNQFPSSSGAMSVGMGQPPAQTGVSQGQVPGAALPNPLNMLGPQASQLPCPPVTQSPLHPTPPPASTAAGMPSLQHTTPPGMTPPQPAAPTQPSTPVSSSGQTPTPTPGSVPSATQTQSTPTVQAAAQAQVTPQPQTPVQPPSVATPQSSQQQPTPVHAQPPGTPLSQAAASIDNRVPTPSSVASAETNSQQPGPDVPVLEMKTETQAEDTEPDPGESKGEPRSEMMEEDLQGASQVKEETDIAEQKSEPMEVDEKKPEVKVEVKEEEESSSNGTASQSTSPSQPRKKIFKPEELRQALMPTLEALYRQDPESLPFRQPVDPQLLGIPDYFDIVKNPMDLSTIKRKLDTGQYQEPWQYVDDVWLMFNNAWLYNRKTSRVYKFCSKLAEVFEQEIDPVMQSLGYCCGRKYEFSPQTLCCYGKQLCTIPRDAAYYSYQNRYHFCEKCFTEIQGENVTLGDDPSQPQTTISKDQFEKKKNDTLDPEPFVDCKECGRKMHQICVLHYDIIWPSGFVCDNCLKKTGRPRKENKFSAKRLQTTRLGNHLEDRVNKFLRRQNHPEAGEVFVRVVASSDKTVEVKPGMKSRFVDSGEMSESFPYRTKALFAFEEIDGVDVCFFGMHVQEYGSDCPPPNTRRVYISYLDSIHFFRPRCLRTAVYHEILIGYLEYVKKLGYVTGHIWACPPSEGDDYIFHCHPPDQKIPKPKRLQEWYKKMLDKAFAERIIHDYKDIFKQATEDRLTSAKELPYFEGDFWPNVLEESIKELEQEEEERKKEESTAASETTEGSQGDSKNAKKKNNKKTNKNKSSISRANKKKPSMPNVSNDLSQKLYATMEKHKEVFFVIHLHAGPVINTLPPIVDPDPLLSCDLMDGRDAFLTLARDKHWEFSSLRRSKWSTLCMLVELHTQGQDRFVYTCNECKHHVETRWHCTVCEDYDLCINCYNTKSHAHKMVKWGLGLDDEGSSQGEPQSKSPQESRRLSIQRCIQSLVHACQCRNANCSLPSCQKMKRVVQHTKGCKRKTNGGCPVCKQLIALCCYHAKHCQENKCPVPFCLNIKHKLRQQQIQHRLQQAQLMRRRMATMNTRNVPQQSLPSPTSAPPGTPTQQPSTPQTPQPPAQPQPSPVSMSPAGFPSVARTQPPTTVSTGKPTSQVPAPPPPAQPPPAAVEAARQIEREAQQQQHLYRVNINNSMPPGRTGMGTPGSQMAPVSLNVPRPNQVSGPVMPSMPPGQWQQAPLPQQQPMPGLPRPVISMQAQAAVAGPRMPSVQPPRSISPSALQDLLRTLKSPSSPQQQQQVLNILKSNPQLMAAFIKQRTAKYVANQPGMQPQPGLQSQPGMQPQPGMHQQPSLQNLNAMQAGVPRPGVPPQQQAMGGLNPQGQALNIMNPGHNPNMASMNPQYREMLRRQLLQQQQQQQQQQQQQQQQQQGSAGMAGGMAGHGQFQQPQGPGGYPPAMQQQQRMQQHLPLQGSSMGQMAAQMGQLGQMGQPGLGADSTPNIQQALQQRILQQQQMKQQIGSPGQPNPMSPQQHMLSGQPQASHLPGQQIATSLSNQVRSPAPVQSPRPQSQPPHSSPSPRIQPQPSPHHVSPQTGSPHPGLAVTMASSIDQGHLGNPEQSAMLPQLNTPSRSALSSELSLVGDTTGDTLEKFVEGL
pIC50: −log10 of the molar value.
endpoint.name: pIC50

compound: COc1ccc(C2(C(=O)N(C)[C@H](C)C(=O)Nc3ccc4[nH]ncc4n3)CCCCC2)cc1 [Example 46]
endpoint.name: pIC50
value.reported: 7.35

compound: CS(=O)(=O)c1ccc(C2(C(=O)N3C[C@H](F)C[C@@H]3C(=O)Nc3ccc4[nH]ncc4c3C#N)CCC(F)(F)CC2)cc1 [Example 99]
endpoint.name: pIC50
value.reported: 6.69

compound: COc1ccc(C2(C(=O)N3CCC[C@@H]3C(=O)Nc3ccc4[nH]c(=O)[nH]c4c3)CCCC2)cc1 [Example 19]
endpoint.name: pIC50
value.reported: 6.77
